Values from PubChem BioAssay AID2733

# measurement-protocol: High Content Assay for Compounds that inhibit the Assembly of the Perinucleolar Compartment: PC3M Cytotoxicity
# condition-info: PC3M cells, ATPLite luminescence viability, 24 h; series mostly up to 46.1 µM
Results filed as inconclusive are left out. Calls of active or inactive are those of the source. Calls come from the whole dose curve; as a rule, active = well fitted inhibition curve with a large enough effect; inconclusive = small, poorly fitted or top-dose-only effect; inactive = flat fitted curve, though single readings scatter.
attribute-measured: Potency

Recorded Potency, per entry:
[
  {
    "compound": "Nc1cccc(-c2nc3ccc(N)cc3s2)c1",
    "result": "25.1 µM (active)"
  },
  {
    "compound": "CCN=c1scc(-c2ccccc2)n1/N=C/c1ccccn1",
    "result": "10 µM (active)"
  },
  {
    "compound": "O=C1C(=O)c2ccc(-c3ccccc3)cc2-c2ccccc21",
    "result": "15.8 µM (active)"
  },
  {
    "compound": "CC12CCC(C(=O)NC(c3ccccc3)c3ccccc3)(OC1=O)C2(C)C (stereo not given)",
    "result": "inactive"
  },
  {
    "compound": "Cc1c(NC(=O)COC(=O)c2cc(-c3ccc(-c4ccccc4)cc3)nc3ccccc23)c(=O)n(-c2ccccc2)n1C",
    "result": "5.01 µM (active)"
  },
  {
    "compound": "Cc1ccc(-n2cc(-c3ccccc3)c3c(NN4CCOCC4)ncnc32)cc1",
    "result": "inactive"
  }
]

Attention now turns to another entry.
Lookup: I would be grateful if you could share the reported Potency for O=C(N/N=C/c1cc2c3c(c1O)CCCN3CCC2)c1ccccc1O .
Found: 3.16 µM (active)

----------
# measurement-protocol: High Content Assay for Compounds that inhibit the Assembly of the Perinucleolar Compartment: PC3M Cytotoxicity
# condition-info: PC3M cells, ATPLite luminescence viability, 24 h; series mostly up to 46.1 µM
Inconclusive results are not listed. Activity calls are given as the source filed them. The call rests on the fitted dose curve; in most records, active means well fitted inhibition curve with a large enough effect; inconclusive means small, poorly fitted or top-dose-only effect; inactive means flat fitted curve, though single readings scatter.
Respond using exactly one of the listed classes: 1 for active, 0 for inactive

[
  {
    "compound": "O=C(Nc1cccnc1)c1cccs1",
    "assigned-label": 0
  },
  {
    "compound": "O=[N+]([O-])c1cc(/C=N/Nc2nc3ccccc3[nH]2)c(O)cc1O",
    "assigned-label": 1
  },
  {
    "compound": "COc1ccc2nc3sc(C(=O)NCCCN4CCc5ccccc5C4)cc3cc2c1",
    "assigned-label": 1
  },
  {
    "compound": "Cc1cccc(C)c1Nc1c(-c2ccc(N3CCOCC3)cc2)nc2ncccn12",
    "assigned-label": 0
  },
  {
    "compound": "Cc1cc(SC(C)C(=O)Nc2ncc(Cl)cc2Cl)nc2ccccc12 (stereo not drawn)",
    "assigned-label": 1
  }
]

Lookup: For Cc1cccc(NC2=C/C(=N/S(=O)(=O)c3cccs3)c3ccccc3C2=O)c1 , what call appears in the results of this test?
Found: 1

Lookup: Assay result, entry CN1c2ccccc2C(C)(C)C12CC(c1ccc(Cl)c(S(=O)(=O)N3CCCC3)c1)=NO2 (stereo not drawn) — outcome?
Found: 1

Lookup: Write down the call the test reported for this compound. Item: CC(=O)N(C)C1=C(N2CCOCC2)C(=O)c2ccccc2C1=O
Found: 1

Lookup: Could you check what this test reported for O=C(N/N=C\c1ccc([N+](=O)[O-])s1)c1cncc(Br)c1 ?
Found: 1

Lookup: # outcome recorded in this test, key = O=C1C(Nc2ccccc2)=C/C(=N/S(=O)(=O)c2cccs2)c2ccccc21
Found: 1

Lookup: For Cc1cc(C(=O)Cn2nnc3ccccc3c2=O)c(C)n1-c1ccccc1F , what call appears in the results of this test?
Found: 1

Lookup: Recorded test call requested for CCOC(=O)CSc1nc2c(sc3ccc([N+](=O)[O-])cc32)c(=O)n1Cc1ccco1
Found: 0

Lookup: Could you check what this test reported for O=C(N/N=C/c1ccccc1O)c1cccc(C(F)(F)F)c1 ?
Found: 1
